Entries annotated with measured composite z-score
# TARGET_UNDER_TEST: Dihydroorotate dehydrogenase (quinone), mitochondrial (Plasmodium falciparum (isolate 3D7)) (UniProt Q08210)
# Sequence (Q08210 whole entry, looked up): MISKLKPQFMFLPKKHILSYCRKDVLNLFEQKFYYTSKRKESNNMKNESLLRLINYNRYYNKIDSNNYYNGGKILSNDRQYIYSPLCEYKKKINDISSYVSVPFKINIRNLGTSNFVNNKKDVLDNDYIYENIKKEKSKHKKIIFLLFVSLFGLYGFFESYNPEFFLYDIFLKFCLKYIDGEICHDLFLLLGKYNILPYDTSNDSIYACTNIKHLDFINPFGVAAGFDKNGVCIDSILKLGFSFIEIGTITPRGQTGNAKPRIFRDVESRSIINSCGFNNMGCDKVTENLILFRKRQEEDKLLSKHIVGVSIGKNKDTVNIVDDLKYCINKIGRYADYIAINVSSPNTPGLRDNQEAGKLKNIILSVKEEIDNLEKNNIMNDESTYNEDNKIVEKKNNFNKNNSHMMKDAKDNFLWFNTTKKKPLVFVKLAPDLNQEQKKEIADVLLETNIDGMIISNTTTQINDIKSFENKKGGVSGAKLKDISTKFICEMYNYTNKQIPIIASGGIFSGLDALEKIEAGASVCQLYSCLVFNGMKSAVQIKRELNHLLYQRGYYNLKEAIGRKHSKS
# TEST_NAME: PfDHODH enzyme inhibitors, primary screen, biochemical, C-terminal His tag, absorbance 600 nm (AID 1175);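 further: recombinant parasite enzyme with a five histidine tag at its C terminus; test concentration not given here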
# ASSAY_CONTEXT: DCIP absorbance 600 nm, higher = more signal, called active from +8 up or from −8 down
Active and inactive are the calls of the source.
READOUT_LABEL: composite z-score

- N#Cc1ccc(NN2C(C(O)c3ccc(B(O)O)cc3)C=CC3CN(c4ccccc4)C(=O)C32)cc1 (centres undefined): -0.883 (inactive)
- O=C1c2ccccc2[C@](Cc2ccccc2I)(C(=O)NCCN2CCOCC2)[C@H](c2ccc(CO)cc2)N1Cc1ccccc1C(F)(F)F: -0.584 (inactive)
- CO[C@H]1O[C@H](CO)[C@@H](OC(=O)CCc2ccccc2)[C@@H]2OC(=O)[C@@H](Cc3ccc4ccccc4c3)C/C=C/C[C@H](Cc3ccc4ccccc4c3)C(=O)O[C@@H]12: -1.32 (inactive)
- O=C1O[C@@H](c2ccccc2)[C@@H](c2ccccc2)N2[C@@H](c3ccc(OCCO)cc3)[C@]3(C(=O)Nc4ccc(C#CC5=CCCCC5)cc43)[C@@H](C(=O)Nc3nc4ccccc4s3)[C@H]12: -4.05 (inactive)

----------
# TEST_NAME: cell viability in Huh7 cells, primary screen, cytotoxicity control for HCV replication inhibitor project, CellTiter-Glo luminescence, basal, 48 h (AID 1143);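 further: Huh7 hepatoma cells carrying a hepatitis C replication reporter with no stimulus; test concentration not given here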
# ASSAY_CONTEXT: Huh7 HCV replicon, higher = more signal, called active from +8 up or from −8 down
Binning of z-score into classes: L = under -3, M = from -3 up to -1, H = -1 and over

* C=C(C(=O)CC[C@@H](OC(=O)c1ccccc1-c1ccccc1C(=O)O)c1ccc(OCCO)cc1)C(C)C | H
* CCCCCCCCCCC(O)C1C=CC2C(=O)N(C)C(=O)C2N1Nc1ccccc1 (centres undefined) | H
* O=C1NC(=O)C2C1C=CC(C(O)c1ccc(F)cc1)N2Nc1ccc(Cl)cc1Cl (centres undefined) | M
* COCCOC(=O)N1C(=O)[C@@]2(c3cc(C#CC4(O)CCCCCC4)ccc31)[C@H](C(N)=O)[C@H]1C(=O)O[C@H](c3ccccc3)[C@H](c3ccccc3)N1[C@@H]2c1ccc(OCCO)cc1 | L
* Cc1ccc(S[C@]2(C(=O)NC(C)C)CC(=O)N(Cc3ccccc3)[C@@H]2c2ccc(CO)cc2I)cc1 | M
* C=CCNC(=O)[C@@H]1[C@H]2C(=O)O[C@H](c3ccccc3)[C@H](c3ccccc3)N2[C@H](c2ccc(O)cc2)[C@@]12C(=O)Nc1ccc(C#CC3=CCCCC3)cc12 | L
* COc1ccc([Si](C)(C)[C@H]2[C@H](CC(=O)N3CCC[C@H]3CO)O[C@@]3(C(=O)N(C)c4c(Br)cc(C)cc43)[C@@H]2C)cc1 | M
* [N-]=[N+]=NCc1ccccc1[C@H]1OC(c2ccc(OCCCO)cc2)=N[C@@]1(Cc1ccccc1N=[N+]=[N-])C(=O)N1CCOCC1 | L
* COCCCNC(=O)[C@@]1(CCC(=O)OC(C)(C)C)N=C(c2ccc(OCCCO)cc2)O[C@H]1c1ccccc1 | H
* Cc1ccc(S[C@]2(C(=O)NC(C)C)CC(=O)N(Cc3ccccc3)[C@@H]2c2ccc(CO)cc2)cc1 | M
* CC[C@@H](O[Si](C#C[Si](C(C)C)(C(C)C)C(C)C)(C(C)C)C(C)C)c1cn(Cc2cccc(Cl)c2)nn1 | H
* [N-]=[N+]=NCc1ccccc1[C@H]1OC(c2ccc(OCCCO)cc2)=N[C@@]1(Cc1ccccc1N=[N+]=[N-])C(N)=O | M
* COc1cccc(C)c1NC(=O)O[C@H]1[C@H](OC(=O)Nc2ccccc2)[C@@H](OC(=O)Nc2ccccc2)[C@@H](OC)O[C@@H]1CO | L
* C=CCC(OC(C)=O)[C@@H]1[C@@H](N(Cc2cccc3ccccc23)C(=O)c2ccc(C)cc2)c2cc(OCCCO)ccc2N1C(=O)Cc1ccc2ccccc2c1 (some centres undefined) | H
* CCCCCN1CC=CC23O[C@@H]4/C=C\CCCOC(=O)C4[C@H]2C(=O)N(CCO)[C@@H]3C1=O (some centres undefined) | M
* CC(C)C[C@@H]1NC(=O)[C@H]2C[C@@H](C(=O)O)[C@@H](c3cccc(OCCO)c3)N2C1=O | H
* O=C1OC[C@@H](c2ccccc2)n2cc(/C=C/c3ccccc3)cc21 | L
* [N-]=[N+]=Nc1ccccc1C[C@]1(C(=O)N2CCCCC2)N=C(c2ccc(OCCCO)cc2)O[C@H]1c1ccccc1 | L
* COc1c(C)cc(-c2nc(-c3ccccc3)c3c(c2C)CO[Si]3(C(C)C)C(C)C)cc1C | H
* CCCCC=C[C@@H](NC(=O)C(C)(C)C)c1ccccc1 | M
* CN(C)CCCCNC(=O)[C@H]1C[C@H]2C(=O)N[C@@H](CCCCN(C)C)C(=O)N2[C@H]1c1ccc(O)cc1 | M
* COC(=O)[C@@]1(Cc2ccc(F)cc2)[C@H]2c3cc(C(=O)N4CCCC4)n(CCSCCO)c3C[C@H]2CN1C(=O)c1ccccc1 | M
* [N-]=[N+]=NCc1ccccc1[C@H]1OC(c2ccc(OCCCO)cc2)=N[C@@]1(CCS(=O)(=O)c1ccccc1)C(=O)NCCN1CCOCC1 | H
* COCCOC(=O)N1C(=O)[C@@]2(c3cc(C#CCC(C(=O)OC)C(=O)OC)ccc31)[C@H](C(=O)N1CCc3cc(OC)c(OC)cc3C1)[C@H]1C(=O)O[C@H](c3ccccc3)[C@H](c3ccccc3)N1[C@@H]2c1ccccc1OCCO | L
* CC(=O)NCCCC[C@@H]1NC(=O)[C@H]2C[C@@H](C(=O)O)[C@@H](c3cccc(OCCO)c3)N2C1=O | H
* O=C1C2C=CC(C(O)C3CCCCC3)N(Nc3ccccc3F)C2C(=O)N1c1ccccc1 (centres undefined) | M
* C[C@H]1C2[C@H](Cc3ccccc3)NC(=O)[C@]23C(=O)N[C@@H](Cc2ccccc2)C(=O)N2CCC[C@H]2C(=O)NC/C=C/CC/C=C/C3[C@@H]2O[C@]12C (some centres undefined) | M
* CN(C)CCCCCCNC(=O)[C@@H]1C[C@@H]2C(=O)N[C@@H](CCCC[N+](C)(C)C)C(=O)N2[C@@H]1c1cccc(OCCO)c1 | H
